TARGET_OR_SYSTEM: Burkholderia cenocepacia purified FtsZ protein (Burkholderia cenocepacia, UniProt B4E5Y7)
Sequence (B4E5Y7 entry or part of it): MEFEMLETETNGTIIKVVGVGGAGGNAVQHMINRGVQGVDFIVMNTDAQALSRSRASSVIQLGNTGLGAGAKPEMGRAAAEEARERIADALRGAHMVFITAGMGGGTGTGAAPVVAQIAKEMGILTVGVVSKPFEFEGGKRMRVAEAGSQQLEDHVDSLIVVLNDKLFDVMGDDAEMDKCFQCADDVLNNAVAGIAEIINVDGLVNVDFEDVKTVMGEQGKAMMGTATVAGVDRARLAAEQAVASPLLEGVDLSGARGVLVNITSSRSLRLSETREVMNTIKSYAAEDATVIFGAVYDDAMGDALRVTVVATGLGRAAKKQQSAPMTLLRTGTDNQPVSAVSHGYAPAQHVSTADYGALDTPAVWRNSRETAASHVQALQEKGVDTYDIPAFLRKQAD
EXPERIMENT_NOTES: biochemical
Type: biochemical
CONDITION_DESCRIPTION: 100 μM compound; Yes/No
PROPERTY_NAME: Inhibition of Bc FtsZ At 100 μM

Before answering, review these 8 worked examples.
>>> recorded_measurement("COC(=O)CS(=O)(=O)c1ccc2nsnc2c1[N+](=O)[O-]")
"Yes"
>>> recorded_measurement("CCOC(=O)COc1ccc2nsnc2c1[N+](=O)[O-]")
"No"
>>> recorded_measurement("COC(=O)CSc1cc(SCC(=O)OC)c2nsnc2c1[N+](=O)[O-]")
"Yes"
>>> recorded_measurement("CCOC(=O)CSc1ccc2nsnc2c1[N+](=O)[O-]")
"Yes"
>>> recorded_measurement("N#CSc1cc(SC#N)c2nsnc2c1[N+](=O)[O-]")
"Yes"
>>> recorded_measurement("CCOC(=O)CSc1c(C)cc2nsnc2c1[N+](=O)[O-]")
"Yes"
>>> recorded_measurement("CCCCCSc1ccc2nsnc2c1[N+](=O)[O-]")
"No"
>>> recorded_measurement("CCOC(=O)CNc1ccc2nsnc2c1[N+](=O)[O-]")
"No"

Proceed to the following item.
Consider the molecule `CCOC(=O)CCSc1ccc2nsnc2c1[N+](=O)[O-]` and give its measured Inhibition of Bc FtsZ At 100 μM.
No

----------
System: B. cenocepacia J2315
EXPERIMENT_NOTES: MIC, 2-fold microdilution, resazurin method
Type: cell-based, Burkholderia cenocepacia
CONDITION_DESCRIPTION: SAR statements; against both bacteria and the purified enzyme
PROPERTY_NAME: activity compared with C109, in words

>>> recorded_measurement("CCOC(=O)C(C)Sc1ccc2nsnc2c1[N+](=O)[O-] (stereo not drawn)")
"partially lost activity"
>>> recorded_measurement("CCOC(=O)CSc1ccc2nsnc2c1[N+](=O)[O-]")
"partially lost activity"
>>> recorded_measurement("O=C1CSc2ccc3nsnc3c2N1")
"loss of activity"
>>> recorded_measurement("COC(=O)CS(=O)(=O)c1ccc2nsnc2c1[N+](=O)[O-]")
"loss of activity"

----------
TARGET_OR_SYSTEM: UniProtKB B4E5Y7
EXPERIMENT_NOTES: biochemical
Format: biochemical
Kindly supply the reported IC50 values for the records listed here.
Kindly provide the numeric value in µM only, without the unit symbol.

Consider the compound `CCOc1cc(SC#N)c2nsnc2c1[N+](=O)[O-]` and give its measured IC50.
19

Consider the compound COC(=O)C[S+]([O-])c1ccc2nsnc2c1[N+](=O)[O-] (stereo not shown) and give its measured IC50.
3

Consider the compound `CC(C)Oc1cc(SC#N)c2nsnc2c1[N+](=O)[O-]` and give its measured IC50.
15

Consider the compound `COc1cc(SC#N)c2nsnc2c1[N+](=O)[O-]` and give its measured IC50.
4

Consider the compound `COC(=O)CS(=O)(=O)c1ccc2nsnc2c1[N+](=O)[O-]` and give its measured IC50.
30

Consider the compound `CN(C)C(=S)Sc1ccc2nsnc2c1[N+](=O)[O-]` and give its measured IC50.
10

Consider the compound `O=[N+]([O-])c1c(SC(=S)N2CCSCC2)ccc2nsnc12` and give its measured IC50.
36

Consider the compound `CCOC(=O)CSc1c(C)cc2nsnc2c1[N+](=O)[O-]` and give its measured IC50.
100

Consider the compound `CCOC(=O)CSc1ccc2nsnc2c1[N+](=O)[O-]` and give its measured IC50.
21

Consider the compound COC(=O)C(C)Sc1ccc2nsnc2c1[N+](=O)[O-] (stereo not shown) and give its measured IC50.
30

Consider the compound `COC(=O)CSc1c(C)cc2nsnc2c1[N+](=O)[O-]` and give its measured IC50.
100

Consider the compound `N#CSc1cc(-c2ccc([N+](=O)[O-])cc2)c2nsnc2c1[N+](=O)[O-]` and give its measured IC50.
17

Consider the compound `N#CSc1cc(SC#N)c2nsnc2c1[N+](=O)[O-]` and give its measured IC50.
52

Consider the compound `COC(=O)CSc1cc(SCC(=O)OC)c2nsnc2c1[N+](=O)[O-]` and give its measured IC50.
15

----------
TARGET_OR_SYSTEM: Burkholderia cenocepacia purified FtsZ protein (Burkholderia cenocepacia)
EXPERIMENT_NOTES: biochemical
Format: biochemical
CONDITION_DESCRIPTION: 100 µM; Yes/No; Supplementary Table 1
PROPERTY_NAME: Inhibits B. cenocepacia FtsZ GTPase at 100µM?

Before answering, review these 4 worked examples.
>>> recorded_measurement("COC(=O)CSc1cc(SCC(=O)OC)c2nsnc2c1[N+](=O)[O-] [compound 11726258]")
"Yes"
>>> recorded_measurement("CCOC(=O)COc1ccc2nsnc2c1[N+](=O)[O-] [compound 11726041]")
"No"
>>> recorded_measurement("O=[N+]([O-])c1c(SC(=S)N2CCSCC2)ccc2nsnc12 [compound 11126015]")
"Yes"
>>> recorded_measurement("O=C1CSc2ccc3nsnc3c2N1 [compound 11626109]")
"No"

Consider the molecule N#CSc1cc(SC#N)c2nsnc2c1[N+](=O)[O-] [compound 10626056] and give its measured Inhibits B. cenocepacia FtsZ GTPase at 100µM?.
Yes

----------
Tested on: P. aeruginosa PAO1
EXPERIMENT_NOTES: MIC, 2-fold microdilution, resazurin method
Assay type: cell-based
CONDITION_DESCRIPTION: Pseudomonas aeruginosa, PAO1; Supplementary Table 1; read-out: MIC (µg/ml) P. aeruginosa PAO1
Kindly supply the reported MIC values for the records listed here.

Consider the molecule `CC(C)Oc1cc(SC#N)c2nsnc2c1[N+](=O)[O-]` and give its measured MIC.
> 128 µg/mL

Consider the molecule `CN(C)C(=S)Sc1ccc2nsnc2c1[N+](=O)[O-]` and give its measured MIC.
> 128 µg/mL

Consider the molecule `COc1cc(SC#N)c2nsnc2c1[N+](=O)[O-]` and give its measured MIC.
> 128 µg/mL

Consider the molecule `COC(=O)CS(=O)(=O)c1ccc2nsnc2c1[N+](=O)[O-]` and give its measured MIC.
> 256 µg/mL

Consider the molecule `COC(=O)CSc1ccc2nsnc2c1[N+](=O)[O-]` and give its measured MIC.
128 µg/mL

Consider the molecule CCOC(=O)C(C)Sc1ccc2nsnc2c1[N+](=O)[O-] (stereo not shown) and give its measured MIC.
> 256 µg/mL

Consider the molecule COC(=O)C[S+]([O-])c1ccc2nsnc2c1[N+](=O)[O-] (stereo not shown) and give its measured MIC.
128 µg/mL

Consider the molecule `CCCCCSc1ccc2nsnc2c1[N+](=O)[O-]` and give its measured MIC.
> 128 µg/mL

Consider the molecule COC(=O)C(C)Sc1ccc2nsnc2c1[N+](=O)[O-] (stereo not shown) and give its measured MIC.
256 µg/mL

Consider the molecule `CCOC(=O)CSc1c(C)cc2nsnc2c1[N+](=O)[O-]` and give its measured MIC.
> 256 µg/mL

Consider the molecule `COC(=O)CSc1c(C)cc2nsnc2c1[N+](=O)[O-]` and give its measured MIC.
> 256 µg/mL

Consider the molecule `N#CSc1cc(SC#N)c2nsnc2c1[N+](=O)[O-]` and give its measured MIC.
> 128 µg/mL

Consider the molecule `COC(=O)CSc1cc(SCC(=O)OC)c2nsnc2c1[N+](=O)[O-]` and give its measured MIC.
> 256 µg/mL

Consider the molecule `N#CSc1cc(-c2ccc([N+](=O)[O-])cc2)c2nsnc2c1[N+](=O)[O-]` and give its measured MIC.
> 128 µg/mL

Consider the molecule `CCOC(=O)CSc1ccc2nsnc2c1[N+](=O)[O-]` and give its measured MIC.
32 µg/mL

Consider the molecule `O=[N+]([O-])c1c(SC(=S)N2CCSCC2)ccc2nsnc12` and give its measured MIC.
> 128 µg/mL

Consider the molecule `O=[N+]([O-])c1c(Sc2ncc[nH]2)ccc2nsnc12` and give its measured MIC.
> 256 µg/mL

Consider the molecule `CCOc1cc(SC#N)c2nsnc2c1[N+](=O)[O-]` and give its measured MIC.
64 µg/mL

Consider the molecule `CCOC(=O)CCSc1ccc2nsnc2c1[N+](=O)[O-]` and give its measured MIC.
> 128 µg/mL

----------
Tested on: B. cenocepacia J2315
EXPERIMENT_NOTES: MIC, 2-fold microdilution, resazurin method
Type: cell-based, Burkholderia cenocepacia
CONDITION_DESCRIPTION: Burkholderia cenocepacia, J2315; LB, 48 h; read-out: MIC B. cenocepacia J2315
Kindly supply the reported MIC values for the records listed here.

Consider the compound `CCOc1cc(SC#N)c2nsnc2c1[N+](=O)[O-]` and give its measured MIC.
> 512 µg/mL

Consider the compound `O=C(O)CSc1ccc2nsnc2c1[N+](=O)[O-]` and give its measured MIC.
> 128 µg/mL

Consider the compound `N#CSc1cc(SC#N)c2nsnc2c1[N+](=O)[O-]` and give its measured MIC.
> 64 µg/mL

Consider the compound COC(=O)C[S+]([O-])c1ccc2nsnc2c1[N+](=O)[O-] (stereo not drawn) and give its measured MIC.
16 µg/mL

Consider the compound `CCOC(=O)CNc1ccc2nsnc2c1[N+](=O)[O-]` and give its measured MIC.
> 256 µg/mL

Consider the compound `O=[N+]([O-])c1c(Sc2ncc[nH]2)ccc2nsnc12` and give its measured MIC.
128 µg/mL

Consider the compound `COC(=O)CSc1ccc2nsnc2c1[N+](=O)[O-]` and give its measured MIC.
8 µg/mL

Consider the compound `CC(C)Oc1cc(SC#N)c2nsnc2c1[N+](=O)[O-]` and give its measured MIC.
> 128 µg/mL

Consider the compound `CN(C)C(=S)Sc1ccc2nsnc2c1[N+](=O)[O-]` and give its measured MIC.
> 128 µg/mL
